assay: Phase 1 drug-interaction study, prednisone with isavuconazole: pharmacokinetics; details: both, human, in vivo, 200 mg
observable: AUC

{"smiles-representation": "C[C@@H](c1nc(-c2ccc(C#N)cc2)cs1)[C@](O)(Cn1cncn1)c1cc(F)ccc1F", "result": "88200 ng·h/mL"}

====

assay: Phase 1 drug-interaction study, prednisone with isavuconazole: pharmacokinetics; conditions: both, human, in vivo, po, 20 mg

{"smiles-representation": "C[C@]12C=CC(=O)C=C1CC[C@@H]1[C@@H]2[C@@H](O)C[C@@]2(C)[C@H]1CC[C@]2(O)C(=O)CO", "AUC(0-inf), ng·h/mL": 1650}

====

assay: Phase 1 drug-interaction study, tacrolimus with isavuconazole: pharmacokinetics; format: in vivo, human (healthy subjects); details: both, human, whole blood, po, 5 mg

{"molecule": "C=CC[C@@H]1/C=C(\\C)C[C@H](C)C[C@H](OC)[C@H]2O[C@@](O)(C(=O)C(=O)N3CCCC[C@H]3C(=O)O[C@H](/C(C)=C/[C@@H]3CC[C@@H](O)[C@H](OC)C3)[C@H](C)[C@@H](O)CC1=O)[C@H](C)C[C@@H]2OC [Tacrolimus, tacrolimus]", "AUC(0-inf) [ng·h/mL]": 313}

====

test: Phase 1 drug-interaction study, tacrolimus with isavuconazole: pharmacokinetics; type: in vivo, human (healthy subjects); details: both, human, plasma, oral, 200 mg
observable: AUC

{"smiles-representation": "C[C@@H](c1nc(-c2ccc(C#N)cc2)cs1)[C@](O)(Cn1cncn1)c1cc(F)ccc1F", "observable": "AUC", "result": "89800 ng·h/mL"}

====

assay: Phase 1 drug-interaction study, prednisone with isavuconazole: pharmacokinetics; conditions: both, human, in vivo, po, 20 mg
observable: Cmax

{"smiles-representation": "C[C@]12C=CC(=O)C=C1CC[C@@H]1[C@@H]2[C@@H](O)C[C@@]2(C)[C@H]1CC[C@]2(O)C(=O)CO", "result": "295 ng/mL"}

====

test: Phase 1 drug-interaction study, tacrolimus with isavuconazole: pharmacokinetics; type: in vivo, human (healthy subjects); conditions: both, human, plasma, oral, 200 mg
observable: Cmax (ng/mL)

{"molecule": "C[C@@H](c1nc(-c2ccc(C#N)cc2)cs1)[C@](O)(Cn1cncn1)c1cc(F)ccc1F [Isavuconazole, isavuconazole]", "observable": "Cmax", "quantitative-readout": 4900}

====

test: Phase 1 drug-interaction study, prednisone with isavuconazole: pharmacokinetics; details: both, human, in vivo, po, 20 mg

{"molecule": "C[C@]12C=CC(=O)C=C1CC[C@@H]1[C@@H]2[C@@H](O)C[C@@]2(C)[C@H]1CC[C@]2(O)C(=O)CO [Prednisolone, prednisolone]", "unit-spec": "h", "half-life": 2.9}

====

experiment: Phase 1 drug-interaction study, sirolimus with isavuconazole: pharmacokinetics; type: in vivo, human (healthy subjects); settings: both, human, whole blood, po, 2 mg
observable: Cmax (ng/mL)

{"smiles-representation": "CO[C@H]1C[C@@H]2CC[C@@H](C)[C@@](O)(O2)C(=O)C(=O)N2CCCC[C@H]2C(=O)O[C@H]([C@H](C)C[C@@H]2CC[C@@H](O)[C@H](OC)C2)CC(=O)[C@H](C)/C=C(\\C)[C@@H](O)[C@@H](OC)C(=O)[C@H](C)C[C@H](C)/C=C/C=C/C=C/1C", "observable": "Cmax", "quantitative-readout": 5.1}

====

details: both, human, in vivo, 200 mg
observable: AUC (µg·h/mL)

{"molecule": "C[C@@H](c1nc(-c2ccc(C#N)cc2)cs1)[C@](O)(Cn1cncn1)c1cc(F)ccc1F [Isavuconazole, isavuconazole]", "quantitative-readout": 108}

====

assay: Phase 1 drug-interaction study, sirolimus with isavuconazole: pharmacokinetics; assay type: in vivo, human (healthy subjects); settings: both, human, whole blood, po, 2 mg

{"compound": "CO[C@H]1C[C@@H]2CC[C@@H](C)[C@@](O)(O2)C(=O)C(=O)N2CCCC[C@H]2C(=O)O[C@H]([C@H](C)C[C@@H]2CC[C@@H](O)[C@H](OC)C2)CC(=O)[C@H](C)/C=C(\\C)[C@@H](O)[C@@H](OC)C(=O)[C@H](C)C[C@H](C)/C=C/C=C/C=C/1C [Sirolimus, sirolimus]", "AUC(0-inf) (ng·h/mL)": 196}

====

assay type: in vivo, human (healthy subjects); conditions: both, human, plasma, oral, 200 mg

{"smiles-representation": "C[C@@H](c1nc(-c2ccc(C#N)cc2)cs1)[C@](O)(Cn1cncn1)c1cc(F)ccc1F", "unit-spec": "ng/mL", "Cmax": 6500}

====

test: Phase 1 drug-interaction study, sirolimus with isavuconazole: pharmacokinetics; assay type: in vivo, human (healthy subjects); details: both, human, plasma, oral, 200 mg
observable: AUC (ng·h/mL)

{"compound": "C[C@@H](c1nc(-c2ccc(C#N)cc2)cs1)[C@](O)(Cn1cncn1)c1cc(F)ccc1F [Isavuconazole, isavuconazole]", "quantitative-readout": 92000}
